Recorded pIC50, one value per entry.
System: p-MAPKAPK2
Test Protocol: Inhibition of p-MAPKAPK2 in vitro, anisomycin-stimulated RAW 264.7 cells, ELISA
Type: cell-based, murine
Settings: Mus musculus, RAW264.7, in the presence of 100% serum
pIC50: −log10 of the molar value. Where a name gives a salt, the structure may show the parent alone.

Cc1ccc(-n2nc(C3(C(F)(F)F)CC3)cc2NC(=O)Nc2ccc(N3CCN(C(=O)c4ccccc4Cl)CC3)nc2C)cn1 [Example 114, mesylate] = ≥ 6.30

Which pIC50 is reported for this molecule? Cc1ccc(-n2nc(C(C)(C)C)cc2NC(=O)Nc2ccc(N3CCN(C(=O)c4ccccc4Cl)CC3)nc2C)cn1 [Example 111, mesylate]
≥ 6.30

What does the data say about its pIC50? Entry: Cc1ccc(-n2nc(C3(C(F)(F)F)CC3)cc2NC(=O)Nc2ccc(N3CCN(C(=O)c4sccc4C)CC3)nc2C)cn1 [Example 113, mesylate]
≥ 6.30

I am curious: what pIC50 value has been reported for Cc1ccc(-n2nc(C3(C(F)(F)F)CC3)cc2NC(=O)Nc2ccc(N3CCN(C(=O)c4ccccc4F)CC3)nc2C)cn1 [Example 115, mesylate] ?
≥ 6.30

Which pIC50 reading was recorded for the molecule Cc1ccc(-n2nc(C(C)(CF)CF)cc2NC(=O)Nc2ccc(N3CCN(C(=O)c4ccccc4C)CC3)nc2C)cc1 ?
≥ 6.30
